# Assayed target: αHL•βCD (Staphylococcus aureus)
# Test: biochemical
# Assay type: biochemical
Use 7 ms as the dividing line for Residence time (τ) of the analyte on αHL·βCD, with the line itself on the Y side and lower values as N.

Molecule	Group label
Cl.NC12CC3CC(CC(C3)C1)C2 [1-adamantanamine hydrochloride]	N
NC(=O)C12CC3CC(CC(C3)C1)C2 [1-adamantanecarboxamide]	N

In: Check the entry OCCC12CC3CC(CC(C3)C1)C2 [1-adamantaneethanol] : does Residence time (τ) of the analyte on αHL·βCD equal or exceed 7 ms?
Out: Y

###

# Assayed target: αHL•βCD (Staphylococcus aureus, UniProt P09616)
# Sequence (P09616 27-319 limits assumed): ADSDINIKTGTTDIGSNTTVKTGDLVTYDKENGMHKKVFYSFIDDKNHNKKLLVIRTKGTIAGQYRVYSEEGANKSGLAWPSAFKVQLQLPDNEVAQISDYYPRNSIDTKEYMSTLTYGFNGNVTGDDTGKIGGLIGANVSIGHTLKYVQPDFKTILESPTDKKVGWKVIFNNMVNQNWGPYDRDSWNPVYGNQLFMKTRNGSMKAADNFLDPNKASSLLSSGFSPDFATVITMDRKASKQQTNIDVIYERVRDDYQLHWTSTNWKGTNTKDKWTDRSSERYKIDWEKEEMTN
# Test: biochemical
# Format: biochemical
Please respond with reported (IP·C·A IP·C)/(IP·C·A-IP) for every item in the list.
Give bare numbers.

Some entries whose results are on file:
Compound	(IP·C·A IP·C)/(IP·C·A-IP)
O=C(O)C12CC3CC(CC(C3)C1)C2	0.346
NC(=O)C12CC3CC(CC(C3)C1)C2 [1-adamantanecarboxamide]	0.333

List (IP·C·A IP·C)/(IP·C·A-IP) for every entry below, keeping the order given.
1. CC(=O)NC12CC3CC(CC(C3)C1)C2 [N-(1-adamantyl)acetamide, N-(1-adamantyl)-acetamide]
2. Cl.NC12CC3CC(CC(C3)C1)C2 [1-adamantanamine hydrochloride]

Out:
[0.348, 0.294]

List (IP·C·A IP·C)/(IP·C·A-IP) for every entry below, keeping the order given.
1. Cl.NC1C2CC3CC(C2)CC1C3 (stereo not drawn) [2-adamantanamine hydrochloride]
2. OCCC12CC3CC(CC(C3)C1)C2

Out:
[0.286, 0.348]

###

Please respond with reported pKd for every item in the list.
# Assayed target: αHL•βCD (Staphylococcus aureus, UniProt P09616)
Answers are plain numbers, as −log10 of the molar value.

Some entries whose results are on file:
Compound	Measured attribute	Readout number
Cl.NC1C2CC3CC(C2)CC1C3 (stereo not drawn) [2-adamantanamine hydrochloride]	pKd	4.01
OCCC12CC3CC(CC(C3)C1)C2 [1-adamantaneethanol]	pKd	5.48
O=C(O)C12CC3CC(CC(C3)C1)C2 [1-adamantanecarboxylic acid]	pKd	5.12

List pKd for every entry below, keeping the order given.
1. CC(=O)NC12CC3CC(CC(C3)C1)C2 [N-(1-adamantyl)acetamide, N-(1-adamantyl)-acetamide]
2. NC(=O)C12CC3CC(CC(C3)C1)C2 [1-adamantanecarboxamide]
3. Cl.NC12CC3CC(CC(C3)C1)C2 [1-adamantanamine hydrochloride]

Out:
[4.85, 4.47, 3.96]

###

# Assayed target: αHL•βCD (Staphylococcus aureus)
# Test: biochemical
# Assay type: biochemical
Measured attribute: Residence time (τ) of the analyte on αHL·βCD (ms)
Answers are plain numbers, in ms.

Some entries whose results are on file:
Compound	Assayed target	Readout number
O=C(O)C12CC3CC(CC(C3)C1)C2	αHL•βCD (Staphylococcus aureus)	14.0
CC(=O)NC12CC3CC(CC(C3)C1)C2 [N-(1-adamantyl)acetamide, N-(1-adamantyl)-acetamide]	αHL•βCD (Staphylococcus aureus)	7.32

Moving on to another compound below.
In: Can you look up the measured Residence time (τ) of the analyte on αHL·βCD of Cl.NC1C2CC3CC(C2)CC1C3 (stereo not drawn) [2-adamantanamine hydrochloride] for me?
Out: 2.54

Source of measurements: patent US6426231B1
